tgt: Lysosomal acid glucosylceramidase (Homo sapiens) (UniProt P04062)
Sequence (P04062 whole entry, looked up): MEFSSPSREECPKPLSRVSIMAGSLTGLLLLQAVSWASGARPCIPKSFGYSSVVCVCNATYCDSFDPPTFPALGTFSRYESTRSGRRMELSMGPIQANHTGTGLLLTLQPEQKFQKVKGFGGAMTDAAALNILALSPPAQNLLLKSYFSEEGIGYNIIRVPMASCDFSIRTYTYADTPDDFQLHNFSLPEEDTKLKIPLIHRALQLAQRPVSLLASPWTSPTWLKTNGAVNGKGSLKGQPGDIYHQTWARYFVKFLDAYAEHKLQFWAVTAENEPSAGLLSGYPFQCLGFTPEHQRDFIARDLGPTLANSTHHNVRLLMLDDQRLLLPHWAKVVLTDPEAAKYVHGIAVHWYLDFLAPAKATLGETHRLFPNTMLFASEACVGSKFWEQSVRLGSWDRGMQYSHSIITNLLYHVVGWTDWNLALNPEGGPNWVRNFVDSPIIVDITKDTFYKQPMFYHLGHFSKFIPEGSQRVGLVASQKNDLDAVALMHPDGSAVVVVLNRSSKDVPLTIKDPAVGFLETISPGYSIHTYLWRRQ
method_description: Glucocerebrosidase-p2 (AID 348); further: potency means the concentration at half of the fitted maximal effect
assay_setup: purified GBA, blue fluorogenic substrate, 40 min
Activity calls are given as the source filed them. No stated cut-off is given here; in the data, active means potency below about 10 µM; inactive means the rest.
A correct response names exactly one class from active, inactive

Lab log entry: O=P(O)(O)c1ccccc1 (tested in a mixture with another compound) — outcome as called in the assay?
inactive

Can you handle `C[C@H](Br)CN(C[C@H](C)Br)c1ccc2c(c1)Cc1ccccc1-2` next?
inactive

Then this compound: `CN[C@H](Cc1ccccc1)c1cccc(OC)c1O`
inactive

Also `NNc1nncn1N` , if possible.
inactive

Next entry: `COc1cc2c(cc1O)C[C@@H]1c3c(cc(O)c(OC)c3-2)CCN1C`
inactive

Thanks! And `CC[C@@H]1[C@@H]2Cc3ccc(O)cc3[C@@]1(CC)CCN2C` ?
inactive

What do you get for `CC(C)c1nccn1Cc1ccc(Cl)cc1Cl` ?
inactive

Same question, `COc1cc2c(cc1OC)[C@]13CC[N@+]4(C)CC5=CCO[C@H]6CC(=O)N2[C@@H]1[C@@H]6[C@@H]5C[C@]34O` this time
inactive

Record: `Cn1c(=O)c2[nH]cnc2n(C)c1=O.[CH2-][C@H](Cc1cccc2cc(C(=O)O)c(=O)oc12)OC.[Hg].[OH-]`
active

Ok, now `CC1(C)CCC(C)(C)c2c1ccc(O)c2Cc1c(O)ccc2c1C(C)(C)CCC2(C)C`
inactive

Record: `O=C(O)/C=C\c1ccc[c]([Sb](=[O])([OH])[OH])c1`
inactive

Another compound: `c1nc(N2CC2)c2cnn([C@@H]3CCCCO3)c2n1`
inactive

Subsequent entry: `CC1=C2C(=O)[C@@H]3[C@@H](CC=C4C[C@@H](O)CC[C@@]43C)[C@H]2CC[C@@]12O[C@H]1C[C@H](C)CN[C@H]1[C@@H]2C`
inactive

Ok, now `O=C(O)CN1C(=O)CN=C(c2ccccn2)c2cc(Cl)ccc21`
inactive

Okay, and `O=[As](O)(O)c1ccc(NCc2ccccc2)cc1` ?
inactive

Query `O=[As](O)(O)c1ccc(Cc2ccc([As](=O)(O)O)cc2)cc1` next
inactive

Same question for `CCN=C=NCCCN(C)C` please.
inactive

Try this compound too: `CSC([N-]/N=C/c1cccc(C)n1)=[S]=[Cu].CS[C@H]([S-])[N-]/N=C/c1cccc(C)n1`
inactive

Also `O=[As](O)(O)c1ccc(N=Nc2ccc(O)cc2)cc1` ?
inactive

Try this compound too: `O=C(O)[C@@H](Br)[C@H](Br)C(=O)O`
inactive

Also `CSCC[C@@H](N)P(C)(=O)O` ?
inactive

Same for C=C(C)c1ccccc1 (tested in a mixture with another compound)
inactive

###

method_description: Cellular Toxicity (caspase-3) Jurkat (AID 655);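 further: cells exposed to compound for 16 h at 37 °C before reading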
assay_setup: Jurkat caspase-3 activation, luminescence; at 92.2 µM (top of the series), DMSO = 0%, tamoxifen = 100%
Inconclusive results are not listed. Calls of active or inactive are those of the source. Calls follow the shape of the dose curve; as a rule, active = well fitted activation curve with a large enough effect; inconclusive = small, poorly fitted or top-dose-only effect; inactive = flat fitted curve, though single readings scatter.
Returns: one label drawn from T (active), F (inactive)

# lookup: test call for `Oc1c(Cl)c(Cl)cc(Cl)c1Cl`
T

Now the same for `Oc1cc(Cl)cc(Cl)c1`
F

Would you kindly repeat that for `CC(Cl)(Cl)Cl` ?
F

Also `Cc1cccc(C)c1N` ?
F

// next record `BrCCc1ccccc1`
F

Another molecule to look at: `ClC(Br)Br`
F

Queued: `Nc1ccc(Cc2ccc(N)cc2)cc1`
F

Also `CCCCCc1cc(O)cc(O)c1` , if possible.
F

Follow-up item: `O=C(O)CCl`
F

# iterate: `C=CCc1cc(OC)c2c(c1)OCO2`
F

What do you have for `Oc1cc(Cl)c(Cl)c(Cl)c1` ?
F

Here is the next molecule: CC1CC(=O)O1 (stereo unspecified)
F

Next entry: `CC(C)OS(C)(=O)=O`
F

Subsequent entry: `Clc1cccc2ccccc12`
F

Also check `CN(C)c1ccccc1`
F

What would you report for NC1CCC(CC2CCC(N)CC2)CC1 (stereo unspecified) ?
F

Record: `Oc1ccc(Cl)c(Cl)c1`
F

Repeat for the following molecule: `Nn1cnnc1`
F

Next molecule up: `Cc1ccc(N)c(C)c1`
F

# repeat for `O=[N+]([O-])c1cc(Cl)c(Cl)cc1Cl`
F

What would you report for `CCOC(=O)CBr` ?
F

Please give the result for `ClC(Cl)(Cl)C(Cl)(Cl)Cl` too.
F

Next molecule up: `N#CCCC#N`
F

Moving on to `O=S(=O)(Cl)c1ccccc1`
F

What about `Cc1ccc(OP(=O)(Oc2ccc(C)cc2)Oc2ccc(C)cc2)cc1` ?
F

Same lookup for `CN(C)c1ccc(N)cc1` , please.
F

Follow-up entry: `CN(C)c1ccc(N(C)C)cc1`
F

And what about the molecule `O=S(=O)(O)F` ?
F

What would you report for `CCCCNC(=O)n1c(NC(=O)OC)nc2ccccc21` ?
F

Do the same for `CCOP(=S)(OCC)Oc1nc(Cl)c(Cl)cc1Cl` please
F

`Nc1cc(Cl)cc(Cl)c1` , same question.
F

Follow-up item: `C/C=C/CC#N`
F

Entry `Cc1cc(-c2cc(C)c(N)c(C)c2)cc(C)c1N` please
F

Now the same for `CC(=O)NNc1ccccc1`
F

Please answer likewise for `Cc1ccc(N=C=O)cc1N=C=O`
F

Would you kindly repeat that for `CCBr` ?
F

Data provenance: PubChem BioAssay (NCATS)
